Test system: L1210 leukemia ip in BDF1 mice, survival T/C
Assay: NCI In Vivo Anticancer Drug Screen. Data for tumor model L1210 Leukemia (intraperitoneal) in B6D2F1 (BDF1) mice
Conditions: endpoint: mean survival time; dose: 100.0 mg/kg/injection; schedule: Q01DX001 (ip); vehicle: Klucel (hydroxypropylcellulose) (HPC); higher = longer survival
Inconclusive results and toxic doses are left out.
What T/C was measured for each of the following?

Q: What reported T/C corresponds to CC(=O)OC1C(COS(=O)(=O)c2ccc(C)cc2)OCOC(COS(=O)(=O)c2ccc(C)cc2)C1OC(C)=O (stereo not drawn) on L1210 leukemia ip in BDF1 mice, survival T/C?
A: 100 % of control

Q: What reported T/C corresponds to O=[N+]([O-])c1cccc(/C=C/S(=O)(=O)c2ccccc2)c1 on L1210 leukemia ip in BDF1 mice, survival T/C?
A: 107 % of control

Q: What reported T/C corresponds to CC(=O)C1CCC2(C)CCC(=O)C(C)C2C1 (stereo not drawn) on L1210 leukemia ip in BDF1 mice, survival T/C?
A: 104 % of control
